Please respond with reported EC50 for every item in the list.
Tested on: human EPO production, Hep3B cells
measurement_protocol: Human EPO production activity in Hep3B cells (EPO-ELISA of culture supernatant)
Assay type: cell-based
protocol_conditions: Homo sapiens, 24 hr incubation, values consisting solely of numbers, read-out: EC50 (μM) in vitro, human EPO production activity
Counter-ions that a name gives are not always drawn.
One number for each entry, in µM.

Study these solved cases before continuing.
- CCC(CC)Cc1cc(O)c(C(=O)NCC(=O)O)c2ncnn12 [Example 45, hydrochloride]: 9.9
- O=C(O)CNC(=O)c1c(O)cc(-c2cc(F)cc(C(F)(F)F)c2)c2ncnn12 [Example 104, acetic acid hydrochloride]: 6.3

# input for lookup
### Prompt May I ask what EC50 has been recorded for O=C(O)CNC(=O)c1c(O)cc(CCc2ccccc2)n2nc(C3CC3)nc12 [Example 15, hydrochloride] ?
### Response 29.1

###

Test system: human EPO production, Hep3B cells
measurement_protocol: Human EPO production activity in Hep3B cells (EPO-ELISA of culture supernatant)
Format: cell-based
protocol_conditions: Homo sapiens, 24 hr incubation, values consisting solely of numbers, read-out: EC50 (μM) in vitro, human EPO production activity
Structures can show the parent of a compound that is named as a salt.
Would you mind telling me the reported EC50 of each entry?
Numbers only, in µM.

# annotated cases, reported EC50 shown
- O=C(O)CNC(=O)c1c(O)cc(CC2CCCCC2)n2ncnc12 [Example 28, hydrochloride]: 13.9
- O=C(O)CNC(=O)c1c(O)cc(CCc2ccc(C(F)(F)F)cc2)n2ncnc12 [Example 16, hydrochloride]: 7
- O=C(O)CNC(=O)c1c(O)cc(-c2cccc(C(F)(F)F)c2)n2ncnc12 [Example 33, hydrochloride]: 10.1

Report EC50 for every entry below.
1. O=C(O)CNC(=O)c1c(O)cc(-c2ccc(F)cc2F)n2ncnc12 [Example 77, acetic acid hydrochloride]
2. O=C(O)CNC(=O)c1c(O)cc(CCC2CC2)n2ncnc12 [Example 47, hydrochloride]
3. O=C(O)CNC(=O)c1c(O)cc(CCc2ccc(C3CC3)cc2)n2ncnc12 [Example 38, hydrochloride]

### Response
1: 18.7; 2: 12; 3: 8.7

For every listed record, write down its EC50.
1. O=C(O)CNC(=O)c1c(O)cc(-c2cc(F)cc(F)c2F)n2ncnc12 [Example 76, acetic acid hydrochloride]
2. CCCCc1c(Cl)c(O)c(C(=O)NCC(=O)O)c2ncnn12 [Example 6, hydrochloride]

### Response
1: 18; 2: 20.8

###

system_tested: human PHD2 (Homo sapiens, UniProt Q9GZT9)
Construct: made in house; host or cells: Sf9 insect cells (baculovirus, pVL1393 vector)
Sequence (Q9GZT9 whole entry): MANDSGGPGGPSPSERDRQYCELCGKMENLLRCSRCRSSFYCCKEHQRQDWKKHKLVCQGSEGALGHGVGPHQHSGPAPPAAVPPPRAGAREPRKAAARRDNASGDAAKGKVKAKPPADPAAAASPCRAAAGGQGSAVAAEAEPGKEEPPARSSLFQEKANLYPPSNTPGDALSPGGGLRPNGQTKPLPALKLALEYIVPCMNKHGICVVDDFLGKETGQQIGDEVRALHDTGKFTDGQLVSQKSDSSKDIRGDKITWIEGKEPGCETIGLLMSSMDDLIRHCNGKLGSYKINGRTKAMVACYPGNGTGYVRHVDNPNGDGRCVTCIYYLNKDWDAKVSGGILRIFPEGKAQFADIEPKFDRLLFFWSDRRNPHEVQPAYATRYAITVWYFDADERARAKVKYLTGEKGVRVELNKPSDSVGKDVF
measurement_protocol: Measurement of human PHD inhibitory activity (TR-FRET, hydroxylation of HIF-1α partial peptide)
Format: biochemical
protocol_conditions: IC50 (μM) in vitro, human PHD inhibitory activity, human PHD2 enzyme 1 nM, 25° C. 30 min, values consisting solely of numbers
Where a name gives a salt, the structure may show the parent alone.
property: IC50 (µM)
One number for each entry, in µM.

- O=C(O)CNC(=O)c1c(O)cc(CCc2ccccc2)n2ncnc12 [Example 116]: 0.18

Alright, here's another compound for you.
### Prompt Return reported IC50; argument: O=C(O)CNC(=O)c1c(O)cc(CCc2ccccc2)n2ncnc12 [Example 2, hydrochloride]
### Response 0.22

###

system_tested: human PHD2 (Homo sapiens, UniProt Q9GZT9)
Construct: made in house; host or cells: Sf9 insect cells (baculovirus, pVL1393 vector)
measurement_protocol: Measurement of human PHD inhibitory activity (TR-FRET, hydroxylation of HIF-1α partial peptide)
Assay type: biochemical
protocol_conditions: human PHD2 enzyme 1 nM, 25° C. 30 min, values consisting solely of numbers; read-out: IC50 (μM) in vitro, human PHD inhibitory activity
Counter-ions that a name gives are not always drawn.
Kindly supply the reported IC50 values for the records listed here.
Numbers only, in µM.

// known answers, use as guide
• CC(C)(C)CCc1cc(O)c(C(=O)NCC(=O)O)c2ncnn12 [Example 24, hydrochloride] = 0.57
• O=C(O)CNC(=O)c1c(O)c(Cl)c(CCc2ccccc2)n2ncnc12 [Example 80, acetic acid hydrochloride] = 0.71
• O=C(O)CNC(=O)c1c(O)cc(CCc2ccc(F)cc2)c2ncnn12 [Example 90, acetic acid hydrochloride] = 0.29

Take each entry in turn and give its IC50.
1. CC(C)(C)Cc1cc(O)c(C(=O)NCC(=O)O)c2ncnn12 [Example 39, hydrochloride]
2. O=C(O)CNC(=O)c1c(O)cc(-c2ccc(Cl)s2)c2ncnn12 [Example 96, acetic acid hydrochloride]
3. O=C(O)CNC(=O)c1c(O)cc(-c2cccc(C(F)(F)F)c2)n2ncnc12 [Example 33, hydrochloride]
4. CCC(C)(C)CCc1cc(O)c(C(=O)NCC(=O)O)c2ncnn12 [Example 48, hydrochloride]

### Response
1.25
0.29
0.46
0.59

###

System: human EPO production, Hep3B cells
measurement_protocol: Human EPO production activity in Hep3B cells (EPO-ELISA of culture supernatant)
Type: cell-based
protocol_conditions: Homo sapiens, 24 hr incubation, values consisting solely of numbers, read-out: EC50 (μM) in vitro, human EPO production activity
Counter-ions that a name gives are not always drawn.
property: EC50 (µM)
Give bare numbers, in µM.

- O=C(O)CNC(=O)c1c(O)cc(-c2cc(Cl)cc(Cl)c2)c2ncnn12 [Example 89, acetic acid hydrochloride]: 4.2
- O=C(O)CNC(=O)c1c(O)c(CCc2ccccc2)cn2ncnc12 [Example 5, hydrochloride]: 11.5
- O=C(O)CNC(=O)c1c(O)cc(CCc2ccc(C(F)(F)F)cc2)c2ncnn12 [Example 102, acetic acid hydrochloride]: 16
- Cc1ccc(-c2cc(O)c(C(=O)NCC(=O)O)c3ncnn23)s1 [Example 72, acetic acid hydrochloride]: 4
- O=C(O)CNC(=O)c1c(O)cc(-c2ccc(Cl)c(Cl)c2)c2ncnn12 [Example 95, acetic acid hydrochloride]: 4.3
- CC(C)(C)CCc1cc(O)c(C(=O)NCC(=O)O)n2ncnc12 [Example 8, hydrochloride]: 13.4
- O=C(O)CNC(=O)c1c(O)cc(-c2ccc(C(F)(F)F)cc2)n2ncnc12 [Example 57, acetic acid hydrochloride]: 4.7
- O=C(O)CNC(=O)c1c(O)cc(CCc2ccccc2C(F)(F)F)c2ncnn12 [Example 100, acetic acid hydrochloride]: 18
- O=C(O)CNC(=O)c1c(O)cc(CCC2CCCC2)n2ncnc12 [Example 60, acetic acid hydrochloride]: 8.4
- O=C(O)CNC(=O)c1c(O)cc(C2CCCCCC2)n2ncnc12 [Example 58, acetic acid hydrochloride]: 4.7

Working through the 4 compounds below one at a time, give EC50 for each.
1. O=C(O)CNC(=O)c1c(O)cc(-c2cc(F)cc(C(F)(F)F)c2)n2ncnc12 [Example 31, hydrochloride]
2. O=C(O)CNC(=O)c1c(O)cc(CCc2cc(F)cc(F)c2)c2ncnn12 [Example 109, acetic acid hydrochloride]
3. O=C(O)CNC(=O)c1c(O)cc(-c2cccc(C(F)(F)F)c2F)n2ncnc12 [Example 55, acetic acid hydrochloride]
4. O=C(O)CNC(=O)c1c(O)cc(-c2ccc(F)c(Cl)c2)n2ncnc12 [Example 23, hydrochloride]

### Response
12.1
13.7
8.9
7.8

###

Hi there, I'd appreciate the recorded EC50 for every entry that follows.
Test system: human EPO production, Hep3B cells
measurement_protocol: Human EPO production activity in Hep3B cells (EPO-ELISA of culture supernatant)
Type: cell-based
protocol_conditions: Homo sapiens, 24 hr incubation, values consisting solely of numbers, read-out: EC50 (μM) in vitro, human EPO production activity
Structures can show the parent of a compound that is named as a salt.
Answers are plain numbers, in µM.

Worked cases, answers included:
• Cc1cc(F)cc(-c2cc(O)c(C(=O)NCC(=O)O)c3ncnn23)c1 [Example 79, acetic acid hydrochloride] = 7.8
• O=C(O)CNC(=O)c1c(O)cc(-c2ccc(Cl)c(F)c2)n2ncnc12 [Example 78, acetic acid hydrochloride] = 6.6
• O=C(O)CNC(=O)c1c(O)cc(C2CCCC2)n2ncnc12 [Example 30, hydrochloride] = 15.4
• CCC(C)(C)CCc1cc(O)c(C(=O)NCC(=O)O)c2ncnn12 [Example 48, hydrochloride] = 4.5
• O=C(O)CNC(=O)c1c(O)cc(C2=CCCCC2)c2ncnn12 [Example 93, acetic acid hydrochloride] = 16
• O=C(O)CNC(=O)c1c(O)cc(-c2cccc(F)c2)n2ncnc12 [Example 42, hydrochloride] = 14.2

Please report EC50 for every entry that follows.
1. O=C(O)CNC(=O)c1c(O)cc(-c2cc(C(F)(F)F)cc(C(F)(F)F)c2)c2ncnn12 [Example 97, acetic acid hydrochloride]
2. O=C(O)CNC(=O)c1c(O)cc(CC2CCCC2)n2ncnc12 [Example 20, hydrochloride]
3. CC(C)Cc1cc(O)c(C(=O)NCC(=O)O)c2ncnn12 [Example 43]
4. O=C(O)CNC(=O)c1c(O)cc(-c2cc(F)cc(C3CC3)c2)n2ncnc12 [Example 52, acetic acid hydrochloride]

### Response
1: 3.5; 2: 6.6; 3: 23.6; 4: 10.4

Hey, quick one: what's EC50 for each of these?
1. O=C(O)CNC(=O)c1c(O)cc(-c2cc(C(F)(F)F)ccc2F)n2ncnc12 [Example 34, hydrochloride]
2. O=C(O)CNC(=O)c1c(O)cc(-c2ccc(F)c(Cl)c2)c2ncnn12 [Example 94, acetic acid hydrochloride]
3. O=C(O)CNC(=O)c1c(O)cc(-c2ccc(Cl)cc2)c2ncnn12 [Example 108]
4. C[C@H](NC(=O)c1c(O)cc(-c2cc(F)cc(F)c2)n2ncnc12)C(=O)O [Example 67, hydrochloride]

### Response
1. 15
2. 9.7
3. 8.9
4. 14.3

### Prompt Would you kindly share the measured EC50 for O=C(O)CNC(=O)c1c(O)cc(-c2ccc(F)c(F)c2)n2ncnc12 [Example 25, hydrochloride] ?
### Response 14.1

Origin of measurements: patent US8283465B2
